- Test system: Huh-7 HCV replicon cells (genotype 1a)
- experiment-notes: Replicon ELISA cell based assay, genotype 1a
- Parameters: species or system HCV genotype 1a
- experimental-conditions: Hepatitis C virus, Huh-7 genotype 1a replicon, 72 hours
- Description: 100 μL of medium containing 10% FCS were added to each well of clear, flat-bottomed 96 well microplates, excepting wells in the top row. Test compound was diluted in assay medium to twice the final required starting concentration from a 40 mM stock solution in DMSO. […] Following incubation, the assay medium was aspirated from the plates. […] The reaction was stopped by the addition of 25 μL per well of 2 M sulphuric acid and the plates were read at 490 nm on a Fluostar Optima spectrophotometer. […]
measured-metric: IC50

Prompt line: Look up IC50 with Huh-7 HCV replicon cells (genotype 1a) for this compound: COc1cc(C(=O)N2[C@@H](c3ncc(C)s3)[C@@H](c3cnccn3)C[C@@]2(Cc2nccs2)C(=O)O)ccc1C(C)(C)C (single isomer, unassigned; enantiomer a) [Example 14]
Response line: < 10 µM

Prompt line: What do we get for COc1cc(C(=O)N2[C@@H](c3nccs3)[C@@H](c3cnccn3)C[C@@]2(Cc2ccsn2)C(=O)O)ccc1C(C)(C)C (racemic) [Example 7] ?
Response line: < 10 µM

***
Prompt line: Look up IC50 with Huh-7 HCV replicon cells (genotype 1a) for this compound: COc1cc(C(=O)N2[C@@H](c3ncc(C)s3)[C@@H](c3cnccn3)C[C@@]2(Cn2cccn2)C(=O)O)ccc1C(C)(C)C (single isomer, unassigned; enantiomer a) [Example 10]
Response line: < 10 µM

---

- target-or-test-system: HCV RNA Polymerase, recombinant NS5B with C-terminal 21 amino acid deletion, genotype 1a strain H77 (Hepatitis C virus genotype 1a, UniProt P27958)
- Construct: fused on or other part: C-terminal 6His-tag
- Sequence (P27958 2421-3011 V2599I, form open): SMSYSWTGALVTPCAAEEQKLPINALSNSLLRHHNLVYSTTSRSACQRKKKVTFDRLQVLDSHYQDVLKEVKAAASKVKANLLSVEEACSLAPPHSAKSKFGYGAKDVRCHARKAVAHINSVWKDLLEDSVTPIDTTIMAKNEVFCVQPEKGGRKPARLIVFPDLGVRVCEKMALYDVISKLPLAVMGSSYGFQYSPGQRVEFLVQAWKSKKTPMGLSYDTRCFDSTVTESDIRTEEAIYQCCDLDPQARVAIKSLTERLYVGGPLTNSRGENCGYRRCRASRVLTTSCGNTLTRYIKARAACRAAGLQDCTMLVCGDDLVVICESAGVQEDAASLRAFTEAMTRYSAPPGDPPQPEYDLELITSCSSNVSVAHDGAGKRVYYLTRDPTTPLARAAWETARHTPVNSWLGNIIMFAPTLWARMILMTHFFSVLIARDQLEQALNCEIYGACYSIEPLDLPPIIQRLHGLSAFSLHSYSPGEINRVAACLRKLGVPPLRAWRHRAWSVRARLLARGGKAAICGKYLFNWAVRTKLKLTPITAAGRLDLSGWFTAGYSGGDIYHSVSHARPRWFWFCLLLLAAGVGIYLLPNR
- experiment-notes: In vitro HCV RNA-dependent RNA polymerase inhibition assay, genotype 1a C-terminally truncated (delta21) enzyme
- experimental-conditions: genotype 1a delta21 NS5B enzyme; read-out: IC50 in delta-21 1a enzyme inhibition assay
- Method: Incorporation of [^33P]-GMP into RNA was followed by absorption of the biotin labelled RNA polymer by streptavidin containing SPA beads. A synthetic template consisting of biotinylated 13mer-oligoG hybridised to polyrC was used as a homopolymer substrate. […] The reaction was performed in a U-bottomed, white, 96-well plate. […] The plate was sealed, mixed centrifuged and incorporated radioactivity determined by counting in a Trilux (Wallac) or Topcount (Packard) Scintillation Counter. […]
pIC50: −log10 of the molar value.
measured-metric: pIC50

Prompt line: Tell me the measured pIC50 of COc1cc(C(=O)N2[C@@H](c3ncc(C)s3)[C@@H](c3cnccn3)C[C@@]2(Cc2cscn2)C(=O)O)ccc1C(C)(C)C (racemic) [Example 15] , please.
Response line: > 6.82

Prompt line: What do we get for COc1cc(C(=O)N2[C@@H](c3ncc(C)s3)[C@@H](c3cnccn3)C[C@@]2(Cn2cccn2)C(=O)O)ccc1C(C)(C)C (racemic) [Example 9] ?
Response line: > 6.82

Prompt line: What do we get for COc1cc(C(=O)N2[C@@H](c3nccs3)[C@@H](c3cnccn3)C[C@@]2(Cc2ccsn2)C(=O)O)ccc1C(C)(C)C (racemic) [Example 7] ?
Response line: > 6.82

Prompt line: What do we get for COc1cc(C(=O)N2[C@@H](c3ncc(C)s3)[C@@H](c3cnccn3)C[C@@]2(Cc2nccs2)C(=O)O)ccc1C(C)(C)C (racemic) [Example 13] ?
Response line: > 6.82

Prompt line: What do we get for COc1cc(C(=O)N2[C@@H](c3nccs3)[C@@H](c3cnccn3)C[C@@]2(Cc2cscn2)C(=O)O)ccc1C(C)(C)C (racemic) [Example 1] ?
Response line: > 6.82

Prompt line: What do we get for COc1cc(C(=O)N2[C@@H](c3nccs3)[C@@H](c3cnccn3)C[C@@]2(Cc2ccccn2)C(=O)O)ccc1C(C)(C)C (racemic) [Compound C, reference compound] ?
Response line: 6.00 to 6.82

Prompt line: What do we get for COc1cc(C(=O)N2[C@@H](c3ncc(C)s3)[C@@H](c3cnccn3)C[C@@]2(Cc2cscn2)C(=O)O)ccc1C(C)(C)C (single isomer, unassigned; enantiomer a) [Example 16] ?
Response line: > 6.82

Prompt line: What do we get for COc1cc(C(=O)N2[C@@H](c3ncc(C)s3)[C@@H](c3cnccn3)C[C@@]2(Cn2cccn2)C(=O)O)ccc1C(C)(C)C (single isomer, unassigned; enantiomer a) [Example 10] ?
Response line: > 6.82

Prompt line: What do we get for COc1cc(C(=O)N2[C@@H](c3nccs3)[C@@H](c3cnccn3)C[C@@]2(CCS(C)(=O)=O)C(=O)O)ccc1C(C)(C)C (racemic) [Compound F, reference compound] ?
Response line: < 6.00

Prompt line: What do we get for COc1cc(C(=O)N2[C@@H](c3nccs3)[C@@H](c3cnccn3)C[C@@]2(Cc2nccs2)C(=O)O)ccc1C(C)(C)C (racemic) [Example 3] ?
Response line: > 6.82

Now look at this one.
Prompt line: Tell me the measured pIC50 of COc1cc(C(=O)N2[C@@H](c3nccs3)[C@@H](c3cnccn3)C[C@@]2(CC(C)C)C(=O)O)ccc1C(C)(C)C (single isomer, unassigned; enantiomer a) [Compound B, reference compound] , please.
Response line: < 6.00
